tested on: MS2 coat protein; assay: apparent KD of MS2 coat protein; higher = weaker reporter binding; conditions: Eterna round: R107; input ligand: theophylline 20 uM
experimental endpoint: apparent KD of MS2 coat protein (nM)
Answer with a number only, understood to be in nM.

Query: Kindly state the measured apparent KD of MS2 coat protein obtained for UGUACUAUGUGAAGGAGCGAGAAUCCUACAUGAGGAUCACCCAUGUAACAGCGAAAGCUGACUCAGGUAGGUCGCACAUAGUACU [ArgBS - First try] with MS2 coat protein.
Result: 115

Query: Kindly state the measured apparent KD of MS2 coat protein obtained for AAGGCACGAGACAUGAGGAUCACCCAUGUUCGAGGACCGGUACGGCCGCCACUCGGUGGACUCAUGGUAAAGCCGGUGAGCCAAA [AK 1.1 SS Trypt (A)] with MS2 coat protein.
Result: 25.2

Query: Kindly state the measured apparent KD of MS2 coat protein obtained for GGGCGUGUGGUGCGGCGUGUUCCGCUCCGUCGAGGACCGGUACGGCCGCCACUCGACAUGAGGAUCACCCAUGUGCGAGCGCGCG [#1 Exclusion - Tryptophan A Attempt #8 (HarryS)] with MS2 coat protein.
Result: 13.2

Query: Kindly state the measured apparent KD of MS2 coat protein obtained for `UGUAUGGACUGAAGGAGCGGUUGAUAACAUGAGCAUCAGCCAUGUAAUAAGGCGAAAGCCAACCAGGUAGGUCGCAGUCCAUACU` with MS2 coat protein.
Result: 12.5

Query: Kindly state the measured apparent KD of MS2 coat protein obtained for GUACAUGAGGAUCACCCAUGUAUAGUUGAAGGAGCGACCGGUGGGUCAGGUAGGUCGCAGCACAUGGCGUCAACCCGUGUAUGCC [#1 Exclusion - Arginine A Attempt #26 (Inspired by Pi)] with MS2 coat protein.
Result: 26.7

* * *

system: MS2 coat protein; assay: apparent KD of MS2 coat protein; designed switch direction (-1 OFF switch, 1 ON switch): -1; higher = weaker reporter binding; conditions: input ligand: FMN 200 uM
experimental endpoint: apparent KD of MS2 coat protein (nM)
Answer with a number only, understood to be in nM.

Below: 4 sequences and their reported apparent KD of MS2 coat protein.
GGGCCCGGAGGAUAUACAUGAGGAUCACCCAUGUAUUUGGGCCCUAUUGGGCCCGGGUGUAGAAGGCCGGGCCC [-42.1, -39.5 kcal, A 19%, 5abis,0] (Eterna round: R97, puzzle: Exclusion 3); 17.3
AGAUGCUCAAGUCGACAUGAGGAUCACCCAUGUACAGUUAAUGAGGAUAUCCGAGAUAAAUAAUAGGAGAAGGUAUGAUCAUGA [Ex NG3 #5] (Eterna round: R96, puzzle: Exclusion NG 3); 86.7
ACGCCGCAAGGAUAUACUUGCGGUGAUGUUCGAGUUCUUCUACUUGAGGAUCACCCAAGUAGAAGGUGCGAUGG [jl-ex2.4.61 ViennaUCT mod] (Eterna round: R97, puzzle: Exclusion 2); 13.7
UUAAUUAAUGUAGGAUAUGCAAGGCGAACCUAAGCAGAAGGACAUGUGGAUCACCCAUGUAAUGCGGUCUGCGUACAGAUCGCU [salish99_ex1_NG1_001] (Eterna round: R96, puzzle: Exclusion NG 1); 271

Query: What does the record list as apparent KD of MS2 coat protein for UCUUUCAUUGUGAGGAUAUGCCCAAAUAAAAGCGGGCAGAAGGCACAUGAGGAUCACCCAUGUCCUGCGGUUAU [salish99_bmx4_r4_150] (Eterna round: R97, puzzle: Brourd's mod of Exclusion 4) ?
Result: 357

Query: What does the record list as apparent KD of MS2 coat protein for GUAAACGCAGAGGAUAUUUCAGAUCCUAGCUGCAAAGAAGGCUGCACAUGAGGAUCACCCAUGUGGUCCUGAAG [Mat - Exclusion 6 - Eli Mod - D2] (Eterna round: R97, puzzle: Exclusion 6) ?
Result: 191

Query: What does the record list as apparent KD of MS2 coat protein for CCGAUGUCAGGAUAUCGUGCAUACAACGAAAGUUCUAUGUGCGAGAAGGGACAUGAGGAUCACCCAUGUUACGG [Omei Ex4 A2] (Eterna round: R97, puzzle: Exclusion 4) ?
Result: 131

Query: What does the record list as apparent KD of MS2 coat protein for AACGUCUAGGUAGGAUAUCCACCAACAGGUGGAAGGAUAUGGAAACAGAAGGUUCGCCAACAGGCGGAGAAGGACCUACGCGUA [pwkr exNG2 2xF7 2xFMN.25] (Eterna round: R96, puzzle: Exclusion NG 2) ?
Result: 50.4

Query: What does the record list as apparent KD of MS2 coat protein for GAAGAGUGAGGAUAUACAUGAGGAUCACCCAUGUUAACCUUCUACAGCAUGGACUCGAGUAGAAGGCGCCAAGA [Eternabot (Original) Solution 21] (Eterna round: R97, puzzle: Exclusion 3) ?
Result: 20.3

* * *

system: MS2 coat protein; experiment: apparent KD of MS2 coat protein; designed switch direction (-1 OFF switch, 1 ON switch): -1; higher = weaker reporter binding; settings: input ligand: none
experimental endpoint: apparent KD of MS2 coat protein (µM)
Answer with a number only, understood to be in µM.

UCUUGUUGUCCGUGAGAAGACAUGAGGAUCACCCAUGUUAGUUUGAUUAUGAUGUGUAAGUUUGUUGCUCGUUUUAU [JR_STOV1_v2_Sub071] (Eterna round: R97, puzzle: Sensor, turn-off variant 1); 0.0565

Turning now to a further record.
Query: What does the record list as apparent KD of MS2 coat protein for CUACUGAAGCUUUGCUUUAGUCGUACAUGAGGAUCACCCAUGUAGGAUAUGGUAGGCUUUGCUUACUAGAAGGAUAGAGUGAUC [salish99_ExNG3_r04_601] (Eterna round: R96, puzzle: Exclusion NG 3) ?
Result: 0.0581

* * *

system: MS2 coat protein; test: apparent KD of MS2 coat protein; designed switch direction (-1 OFF switch, 1 ON switch): 1; higher = weaker reporter binding; conditions: Eterna round: R98; input ligand: none
# apparent KD of MS2 coat protein values compiled below
Answer with a number only, understood to be in nM.

Below: 2 sequences and their reported apparent KD of MS2 coat protein.
GCAGAAGGUGCGGAGGAUCACCCUGUAAGGAUAUGCAUUAGCAAGGAUAUACAGAGGAUCACCCUGUAGAAGGUGCACUACUCU [pwkr2 ssNG3 DX.1]; 1430
AAGUUUUUACAAGGAUAUCAGUUGUUUAUAAAUUAAACAUGAGGAUCACCCAUGUAACAAAGGAGUGAGAAGGUGUGUUGGAAA [JR_SSNG2_Sub089]; 408

Turning now to a further record.
Query: Kindly state the measured apparent KD of MS2 coat protein obtained for GGAGACCUCACAGGAUAUGCUGGACUUUGUCCAGCAGAAGGGUGACUAACAUGAGGAUCACCCAUGUAGGUCUCCAAAUUUAAU [Denovo 58] with MS2 coat protein.
Result: 40.8

* * *

system: MS2 coat protein; assay: apparent KD of MS2 coat protein; designed switch direction (-1 OFF switch, 1 ON switch): -1; higher = weaker reporter binding; conditions: input ligand: FMN 200 uM
Label met when apparent KD of MS2 coat protein >= 200 nM; otherwise not met.

Solved entries:
GGUUAGGCAGGAUAUACCCACAGUGUCUGUAGAAUCGCAAGACAUGAGGAUCACCCAUGUAGAAGGGCCGACCG [Eternabot (L1) Solution 1] (Eterna round: R97, puzzle: Exclusion 2); not met
CUAGGGCGCAUUUAAACGCCCUAACAUGAGGAUCACCCAUGUCAGGAUAUGUAGGCAAAGACCCUACAGAAGGGACAUGUCCUA [Lainceso] (Eterna round: R96, puzzle: Exclusion NG 3); met
CCUUUGUGAGGAUAUCGUUGGCCAGACAUGAGGAUCACCCAUGUGGCUGGAACUCAUGGACGAGAAGGCACCUCUU [Eternabot (L2) Solution 52] (Eterna round: R97, puzzle: Exclusion 5); met
CCGGCUUAGGAGGAUAUCAGAGUCGAAAGACUCUGAGAAGGCCUAACAUGAGGAUCACCCAUGUGUCCUACCGG [Mod of Eli 7 - Jieux - Exclusion 6] (Eterna round: R97, puzzle: Exclusion 6); not met
CGAGCUCAUGUGAGGAUAUACCUAUGGAUACAUAGGUAGAAGGCACAUGAGGAUCACCCAUGUCCUAGAGCUCG [jl-bmx4-4.58] (Eterna round: R97, puzzle: Brourd's mod of Exclusion 4); met
UAACUUCUUGUAAGGAUAUUGGCGCGAAAGCGAACCGAGAAGGUACAUGAGGAUCACCCAUGUGAAAUAAGAAU [Mod of Zala 14 - Jieux - Brourd's Mod of Exclusion 4] (Eterna round: R97, puzzle: Brourd's mod of Exclusion 4); met
AAAUAGCUAGAGGAUAUUGGAUAGGAUUUACUACGAGAAGGUUAGACAUGAGGAUCACCCAUGUUGUGUUGGGA [EX6 #18] (Eterna round: R97, puzzle: Exclusion 6); not met
AAAACUGGUGUUAGGAUAUUCCUAGGAAAGCUUGGGAAGAAGGGACAUGAGGAUCACCCAUGUCCAGUGAUCAG [Eternabot (Original) Solution 19] (Eterna round: R97, puzzle: Brourd's mod of Exclusion 4); not met

With those in mind, consider the next sequence.
Query: Determine whether measured apparent KD of MS2 coat protein meets or exceeds 200 nM for GAGAGAAUCUAGGAUAUAUCAAGAGAAGGAGAGAUAGAAGGAGGGACAUGAGGAUCACCCAUGUCUUCGUGUAG [Default title] (Eterna round: R97, puzzle: Exclusion 6)
Result: not met
